The reported numbers originate from patent US8143255B2.

- Assay target: FLT3 (Homo sapiens, UniProt P36888)
- Test name: In vitro kinase activity assay (PKLight), FLT3
- Conditions used: recombinant FLT3, poly(Glu,Tyr) substrate, 4 μM ATP
- Method: The recombinant enzymes (CDK2/CyclinA, FLT3, JAK2 and JAK2 V617F) were purchased from Invitrogen (Cat # PV3267, 3182, 4210 and 4347 respectively). All assays were carried out in 384-well white microtiter plates using the PKLight assay system from Cambrex (East rutherford, N.J.). […] Luminescence signals were detected on a multi-label plate reader (Victor^2 V 1420, Perkin-Elmer). […]
Measured endpoint: IC50

As a guide, the following entries are already answered.
• CN1C/C=C/CCOc2cc(F)cc(c2)-c2ccnc(n2)Nc2cccc(c2)C1 = ≤ 1000 nM
• CN1C/C=C/COCC2=CC=C(S2)c2ccnc(n2)Nc2ccc(OCCN3CCCC3)c(c2)C1 = ≤ 1000 nM
• CN1C/C=C/CC(=O)Nc2cccc(c2)-c2ccnc(n2)Nc2cccc(c2)C1 = 1000 to 5000 nM

Here is another compound to look at.
## Task Need IC50 of CN1Cc2cccc(c2)Nc2nccc(n2)-c2cccc(c2)OCCC2CC2C1 (stereo not shown) , thanks.
## Result ≤ 1000 nM

====

- Assay target: JAK2 (Homo sapiens, UniProt O60674)
- Construct: purchased Invitrogen PV4210
- Sequence (O60674 whole entry): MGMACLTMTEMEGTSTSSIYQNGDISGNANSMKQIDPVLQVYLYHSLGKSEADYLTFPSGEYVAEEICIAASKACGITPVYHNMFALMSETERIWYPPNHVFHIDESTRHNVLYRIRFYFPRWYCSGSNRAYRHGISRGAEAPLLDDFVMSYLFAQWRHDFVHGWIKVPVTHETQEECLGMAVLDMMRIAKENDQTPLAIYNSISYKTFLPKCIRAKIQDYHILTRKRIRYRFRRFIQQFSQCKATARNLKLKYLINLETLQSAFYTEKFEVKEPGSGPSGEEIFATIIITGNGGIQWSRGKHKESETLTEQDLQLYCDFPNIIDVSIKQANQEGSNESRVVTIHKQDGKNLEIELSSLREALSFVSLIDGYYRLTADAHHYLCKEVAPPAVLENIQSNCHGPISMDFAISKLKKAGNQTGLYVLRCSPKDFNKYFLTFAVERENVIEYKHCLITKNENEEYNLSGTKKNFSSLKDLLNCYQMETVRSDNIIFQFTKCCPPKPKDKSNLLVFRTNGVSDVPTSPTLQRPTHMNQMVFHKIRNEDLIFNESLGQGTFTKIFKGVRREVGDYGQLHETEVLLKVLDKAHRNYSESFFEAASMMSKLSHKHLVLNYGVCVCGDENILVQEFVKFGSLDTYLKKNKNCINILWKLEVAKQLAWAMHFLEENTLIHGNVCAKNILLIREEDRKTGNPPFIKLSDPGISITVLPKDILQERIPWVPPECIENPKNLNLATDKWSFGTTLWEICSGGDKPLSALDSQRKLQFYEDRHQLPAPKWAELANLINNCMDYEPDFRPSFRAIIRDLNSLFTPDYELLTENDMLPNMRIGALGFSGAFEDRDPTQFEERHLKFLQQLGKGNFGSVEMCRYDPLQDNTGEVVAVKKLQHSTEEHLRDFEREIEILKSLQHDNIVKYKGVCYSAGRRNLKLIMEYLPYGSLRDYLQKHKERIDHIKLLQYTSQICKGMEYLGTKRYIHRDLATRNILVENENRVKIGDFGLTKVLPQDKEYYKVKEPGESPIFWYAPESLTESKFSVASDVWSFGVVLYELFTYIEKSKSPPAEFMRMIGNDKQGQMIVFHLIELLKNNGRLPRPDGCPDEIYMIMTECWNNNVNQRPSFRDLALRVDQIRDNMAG
- Test name: In vitro kinase activity assay (PKLight), JAK2
- Assay type: biochemical
- Conditions used: recombinant JAK2, poly(Glu,Ala,Tyr) substrate, 0.2 μM ATP
Measured endpoint: IC50

• CN1C/C=C/COCC2=CC=C(S2)c2ccnc(n2)Nc2ccc(OCCN3CCCC3)c(c2)C1 = ≤ 1 µM
• C1=C/CN(C2CC2)Cc2cc(ccc2OCCN2CCOCC2)Nc2nccc(n2)-c2cccc(c2)OCC/1 = ≤ 1 µM
• CN1Cc2cccc(c2)Nc2nccc(n2)-c2cccc(c2)OCCC2CC2C1 (stereo not shown) = ≤ 1 µM

Here is another compound to look at.
## Task Need IC50 of "O=C1CC/C=C/COCc2cccc(c2)Nc2nccc(n2)-c2cccc(c2)N1" , thanks.
## Result > 5 µM

====

GI50 values by entry
- Tested on: MV4-11 (acute myeloid leukemia cell line)
- Test name: Cell-based proliferation assay, MV4-11
- Conditions used: Homo sapiens; MV4-11 cells, 96 h treatment

• CN1C/C=C/CCOc2cccc(c2)-c2ccnc(n2)Nc2cccc(c2)C1 = ≤ 1000 nM
• CN1C/C=C/CCOc2cccc(c2)-c2ccnc(n2)Nc2ccc(N3CCOCC3)c(c2)C1 = ≤ 1000 nM
• CN1C/C=C/CCOc2cccc(c2)-c2ccnc(n2)Nc2ccc(OCCN3CCCCC3)c(c2)C1 = ≤ 1000 nM
• CCN(CC)CCOc1ccc2cc1CN(C)C/C=C/CCOc1cccc(c1)-c1ccnc(n1)N2 = ≤ 1000 nM
• Cc1cnc2nc1-c1cccc(c1)OCC/C=C/CN(C)Cc1cccc(c1)N2 = ≤ 1000 nM

## Task Need GI50 of "CN1C/C=C/CC(=O)Nc2cccc(c2)-c2ccnc(n2)Nc2cccc(c2)C1" , thanks.
## Result 1000 to 5000 nM

## Task Need GI50 of "O=C1CC/C=C/COCc2cccc(c2)Nc2nccc(n2)-c2cccc(c2)N1" , thanks.
## Result 1000 to 5000 nM

## Task Need GI50 of "CN1C/C=C/COCC2=CC=C(S2)c2ccnc(n2)Nc2ccc(OCCN3CCCC3)c(c2)C1" , thanks.
## Result ≤ 1000 nM

====

IC50 values by entry
- Assay target: CDK2/CyclinA (Homo sapiens)
- Test name: In vitro kinase activity assay (PKLight), CDK2/Cyclin A
- Conditions used: recombinant CDK2/Cyclin A, RbING substrate, 0.5 μM ATP, 2 hr

## Task Need IC50 of "CN1C/C=C/CCOc2cc(ccc2N)-c2ccnc(n2)Nc2cccc(c2)C1" , thanks.
## Result ≤ 1000 nM

## Task Need IC50 of "CN1C/C=C/CCOc2cccc(c2)-c2ccnc(n2)Nc2cc(N)cc(c2)C1" , thanks.
## Result ≤ 1000 nM

## Task Need IC50 of "C1=C/CN(C2CC2)Cc2cccc(c2)Nc2nccc(n2)-c2cccc(c2)OCC/1" , thanks.
## Result ≤ 1000 nM

## Task Need IC50 of "Cc1cnc2nc1-c1cccc(c1)OCC/C=C/CN(C)Cc1cccc(c1)N2" , thanks.
## Result ≤ 1000 nM

## Task Need IC50 of "CN1C/C=C/CCOc2cccc(c2)-c2ccnc(n2)Nc2ccc(OCCN3CCCCC3)c(c2)C1" , thanks.
## Result ≤ 1000 nM

## Task Need IC50 of "CN1C/C=C/CC(=O)Nc2cccc(c2)-c2ccnc(n2)Nc2cccc(c2)C1" , thanks.
## Result 1000 to 5000 nM

====

- Assay target: FLT3 (Homo sapiens, UniProt P36888)
- Construct: purchased Invitrogen PV3182
- Sequence (P36888 27-993): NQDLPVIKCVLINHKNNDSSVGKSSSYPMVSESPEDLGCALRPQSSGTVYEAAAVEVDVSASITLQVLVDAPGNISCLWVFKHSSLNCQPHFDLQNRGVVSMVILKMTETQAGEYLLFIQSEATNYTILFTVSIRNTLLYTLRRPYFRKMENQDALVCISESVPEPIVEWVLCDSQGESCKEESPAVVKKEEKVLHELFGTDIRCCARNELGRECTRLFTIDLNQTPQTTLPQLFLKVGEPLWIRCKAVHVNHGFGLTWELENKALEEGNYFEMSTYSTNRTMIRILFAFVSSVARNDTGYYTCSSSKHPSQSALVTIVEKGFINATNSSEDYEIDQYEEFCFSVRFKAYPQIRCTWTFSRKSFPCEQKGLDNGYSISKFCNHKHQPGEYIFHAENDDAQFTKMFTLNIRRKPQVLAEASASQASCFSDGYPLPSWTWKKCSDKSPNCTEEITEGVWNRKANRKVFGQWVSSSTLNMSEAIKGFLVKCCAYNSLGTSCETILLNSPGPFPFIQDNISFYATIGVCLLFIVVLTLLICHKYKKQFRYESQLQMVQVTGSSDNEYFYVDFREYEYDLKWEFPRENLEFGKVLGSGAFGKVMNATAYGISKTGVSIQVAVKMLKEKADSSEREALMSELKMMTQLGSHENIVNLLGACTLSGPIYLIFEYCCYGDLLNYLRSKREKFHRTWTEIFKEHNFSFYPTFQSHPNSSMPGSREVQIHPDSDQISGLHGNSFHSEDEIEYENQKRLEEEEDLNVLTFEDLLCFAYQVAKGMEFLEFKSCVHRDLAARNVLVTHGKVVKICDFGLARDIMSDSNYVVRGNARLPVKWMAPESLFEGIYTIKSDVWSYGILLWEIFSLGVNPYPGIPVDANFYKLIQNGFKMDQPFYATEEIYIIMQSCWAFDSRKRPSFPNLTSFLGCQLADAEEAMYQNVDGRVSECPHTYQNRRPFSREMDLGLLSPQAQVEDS
- Test name: In vitro kinase activity assay (PKLight), FLT3
- Type: biochemical
- Conditions used: recombinant FLT3, poly(Glu,Tyr) substrate, 4 μM ATP
IC50 values by entry

As a guide, the following entries are already answered.
- CN1C/C=C/CCOc2cccc(c2)-c2ccnc(n2)Nc2ccc(OCCN3CCCC3)c(c2)C1 [Compound 40]: ≤ 1000 nM
- C1=C/CN(C2CC2)Cc2cc(ccc2OCCN2CCOCC2)Nc2nccc(n2)-c2cccc(c2)OCC/1 [Compound 36]: ≤ 1000 nM
- CN1C/C=C/CCOc2cccc(c2)-c2ccnc(n2)Nc2cc(N)cc(c2)C1 [Compound 81]: ≤ 1000 nM
- CN1C/C=C/CCOc2cccc(c2)-c2ccnc(n2)Nc2ccc(N3CCOCC3)c(c2)C1 [Compound 39]: ≤ 1000 nM

## Task Need IC50 of O=C1NC/C=C/COCc2cccc(c2)Nc2nccc(n2)-c2cccc1c2 [Compound 17] , thanks.
## Result 1000 to 5000 nM

## Task Need IC50 of Cc1cnc2nc1-c1cccc(c1)OCC/C=C/CN(C)Cc1cccc(c1)N2 [Compound 27] , thanks.
## Result ≤ 1000 nM

====

- System: MV4-11 (acute myeloid leukemia cell line)
- Test name: Cell-based proliferation assay, MV4-11
- Conditions used: Homo sapiens; MV4-11 cells, 96 h treatment
GI50 values by entry

As a guide, the following entries are already answered.
* CN1C/C=C/CCOc2cccc(c2)-c2ccnc(n2)Nc2ccc(OCCn3cncn3)c(c2)C1 [Compound 61] | ≤ 1 µM
* CN1C/C=C/CCOc2cccc(c2)-c2ccnc(n2)Nc2ccc(OCCN3CCCC3)c(c2)C1 [Compound 40] | ≤ 1 µM
* CN1C/C=C/CCOc2cccc(c2)-c2ccnc(n2)Nc2ccc(OCCN3CCOCC3)c(c2)C1 [Compound 13] | > 5 µM
* CN1C/C=C/CCOc2cccc(c2)-c2ccnc(n2)Nc2cc(N)cc(c2)C1 [Compound 81] | ≤ 1 µM
* O=C1NC/C=C/COCc2cccc(c2)Nc2nccc(n2)-c2cccc1c2 [Compound 17] | > 5 µM

## Task Need GI50 of CN1C/C=C/CCOc2cccc(c2)-c2ccnc(n2)Nc2cc(ccn2)C1 [Compound 44] , thanks.
## Result 1 to 5 µM

## Task Need GI50 of CN1C/C=C/CCOc2cc(F)cc(c2)-c2ccnc(n2)Nc2ccc(OCCN3CCCC3)c(c2)C1 [Compound 52] , thanks.
## Result ≤ 1 µM

## Task Need GI50 of CCS(=O)(=O)CCOc1ccc2cc1CN(C)C/C=C/CCOc1cccc(c1)-c1ccnc(n1)N2 [Compound 70] , thanks.
## Result ≤ 1 µM

## Task Need GI50 of CN1C/C=C/COCC2=CC=C(O2)c2ccnc(n2)Nc2cccc(c2)C1 [Compound 62] , thanks.
## Result ≤ 1 µM

## Task Need GI50 of C1=C/CN(C2CC2)Cc2cc(ccc2OCCN2CCOCC2)Nc2nccc(n2)-c2cccc(c2)OCC/1 [Compound 36] , thanks.
## Result ≤ 1 µM

## Task Need GI50 of CN1C/C=C/CCOc2cc(F)cc(c2)-c2ccnc(n2)Nc2cccc(c2)C1 [Compound 35] , thanks.
## Result ≤ 1 µM
